# credit: patent US20100261660A1

Target: T1, Soluble CD28-Ig (extracellular domain of human CD28 fused to the Fc portion of human IgG1) (human, UniProt P10747 19-152, biotin-conjugated (NHS-biotin) in the FACS binding assays)
T1 construct: extracellular domain; bought from R&D Systems; also called sCD28-Ig; CD28-Ig Fc; not shown: Fc portion of human IgG1
Test: competitive FACS on transfected cells, biotin-sCD28-Ig with FITC-sCTLA-4-Ig; grade 0-2 of CD28/CTLA-4 ratio vs WT hB7-1
measuredEndpoint: Binding Score
Lab note: jot down the number only; don't add units.

# binder, Binding Score
rows = [
    ("Round 2 CD28D10-4 (ligand) SGITPKSVTKRVKETVMLSCDYNTSTEELTSLRIYWQKDSKMVLAILPGKVQVWPEYKNRTITDMNDNPRIVILALRLSDKGTYTCVVQKNENGSFRREHLTSVTLSIRADFPVPSITDIGHPAPNVKRIRCSASGGFPEPRLAWMEDGEELNAVNTTVDQDLDTELYSVSSELDFNVTNNHSIVCLIKYGELSVSQIFPWSKPKQEPPIDQLPFWVIIPVSGALVLTAVVLYCLACRHVARWKRTRRNEETVGTERLSPIYLGSAQSSG", 0),
]

Proceeding to the next binder to report its Binding Score.
## Input Give the reported value of Binding Score for this record: Round 2 CD28BP-17 (ligand) SGITPKSVTKRVKETVMLSCDYSTSTEELTSLRIYWQKDSKMVLAILPGKVQVWPEYKNRTFPDIINNLSLMILALRLSDKGTYTCVVQKNENGSFRREHLTSVTLSIRADFPVPSITDIGHPAPNVKRIRCSASGDFPEPRLAWMEDGEELNAVNTTVDQDLDTELYSVSSELDFNVTNNHSIVCLIKYGELSVSQIFPWSKPKQEPPIDQLPFWVIIPVSGALVLTVVVLYCLACRHVARWKRTRRNEETVGTERLSPIYLGSAQSSG
## Output 2
